# TEST: NCI Yeast Anticancer Drug Screen. Data for the sgs1 mgt1 strain (AID 161);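 also: 0% = growth of cultures given vehicle only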
# CONDITION_DETAILS: S. cerevisiae sgs1 mgt1 strain, at 50.0 µM (retest, dose inferred, filed as 5.0)
About 79,000 compounds went through this panel and 15% of them were active in at least one assay; those are over-represented in the sample as a whole. Calls of active or inactive are those of the source. Rule as the data show it: active = growth inhibition above about 70%; inactive = the rest.
Possible outcomes: yes (1) = active, no (0) = inactive

>>> assigned_category("COC1=CC(=O)c2c(O)c3c(c(O)c2C1=O)C[C@](C)(O)C[C@@H]3O")
"yes (1)"
>>> assigned_category("CN(C)c1ccc(/C=C\\c2c3ccccc3cc[n+]2[O-])cc1")
"no (0)"
>>> assigned_category("Nc1c(/C=C/c2cc3cc(C4=NCCN4)ccc3o2)[nH]c2cc(C3=NCCN3)ccc12")
"yes (1)"
>>> assigned_category("Cc1occc1C(=S)Nc1ccc(Cl)c(C(=O)OCC2CC2)c1")
"no (0)"
>>> assigned_category("CC(C(O)c1ccccc1)[N+](=O)[O-] (stereo not given)")
"no (0)"
>>> assigned_category("CCOC1Oc2ccccc2-c2nc(SC)ncc21 (stereo not given)")
"no (0)"
>>> assigned_category("COC1/C=C/OC2(C)Oc3c(C)c(OC(C)=O)c4c(c3C2=O)C(=O)C=C(NC(=O)/C(C)=C\\C=C\\C(C)C(O)C(C)C(O)C(C)C(OC(C)=O)C1C)C4=O (stereo not given)")
"no (0)"
>>> assigned_category("O=C(NCCCCCCNC(=O)n1cc(F)c(=O)[nH]c1=O)NCCCOCCOCCOCCOCCOCCOCCOCCOCCOCCOCCOCCOCCOCCOCCOCCOCCOCCOCCOCCOCCOCCCNC(=O)C(O)C(O)C(O)C(O)CO (stereo not given)")
"yes (1)"
>>> assigned_category("O=C(O)CCCc1ccc2c(c1Br)C=CC2")
"yes (1)"
>>> assigned_category("C/C(=N/O)c1cc([N+](=O)[O-])c(O)cc1O")
"yes (1)"

###

The reader will find reported growth inhibition values listed item by item below.
# TEST: NCI Yeast Anticancer Drug Screen. Data for the rad50 strain (AID 155);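 also: 0% = growth of vehicle-only cultures of the same strain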
# CONDITION_DETAILS: S. cerevisiae rad50 strain growth inhibition; at 50.0 µM; active compounds read high
This is part of a sample that, as a whole, favours compounds with a hit. Of some 79,000 tested, about 15% had one in any assay.
OBSERVATION_TYPE: growth inhibition (%)

>>> number("CC(CO)(Nc1ccc([N+](=O)[O-])cc1[N+](=O)[O-])C(=O)O (configuration not stated)")
97.1
>>> number("COc1cc2c(cc1O)C1Cc3ccc(OC)c(O)c3C(C2)N1C (configuration not stated)")
66.3
>>> number("C[CH2][Sn]([CH2]C)([O]C(=O)c1c(F)cccc1F)[O][Sn]([CH2]C)([CH2]C)[O]C(=O)c1c(F)cccc1F")
81.3
>>> number("Clc1ccc(/C=C\\c2ccncc2)cc1")
48.2
>>> number("O=C(O/N=C1/CCC/C1=C\\c1ccccc1)c1ccccc1")
96.5
>>> number("CC(=O)O[C@]1(C(C)=O)CC[C@H]2[C@@H]3C[C@H](C)C4=CC(=O)NCC[C@]4(C)[C@H]3CC[C@@]21C")
93.2
>>> number("COC(=O)c1nc2ccc([N+](=O)[O-])cc2n1O")
2.25
>>> number("OC1C2COc3nc4ccccc4n3C(O2)C1O (configuration not stated)")
-7.3
>>> number("O=[N+]([O-])/C(C(Cl)=C(Cl)Cl)=C(/Sc1ccccc1)N1CCOCC1")
88.2
>>> number("CCOC(=O)CNC(=O)Sc1ccc(C(C)(C)C)cc1C")
0.05
>>> number("CCOC(=O)c1c(C)[nH]c(C(c2ccccc2)c2[nH]c(C)c(C(=O)OCC)c2C)c1C")
44
>>> number("c1ccc(/C(=N\\Nc2nc3ccccc3s2)c2ccccn2)cc1")
71.7
>>> number("CN(C)CCCNc1ccc2c(=O)n(CCN(C)C)c(=O)n3c4ccccc4c(=O)c1c23")
71.7
>>> number("CN(Cc1ccccc1)c1nc(=[N+](C)C)ss1")
4.35
>>> number("CCCCCCCCCCCCCCCCNC(=S)N/C=C(/C#N)C(=O)OC")
99
>>> number("Oc1c(Cl)c2ccccc2c2ccccc12")
98.6
>>> number("CC(=O)N=C1N(/C=C2\\C(=O)Oc3ccccc3C2=O)C(=O)/C(=C/c2ccco2)N1C")
97.6
>>> number("O=C(CCl)Oc1c(Br)cc(-c2ccccc2)cc1Br")
77.3
>>> number("O=C1c2ccccc2C(=O)c2sc(Nc3ccc(Cl)cc3)nc21")
90.5
>>> number("Cc1ccc(O)c(Cc2ccccc2Cl)c1")
99.3
>>> number("CN(C)c1nc(NNS(=O)(=O)c2ccc(N)cc2)nc(N(C)C)n1")
-27.1
>>> number("O=[N+]([O-])c1ccc(-[n+]2ccc3ccccc3c2)c([N+](=O)[O-])c1")
72.4

Values were extracted from PubChem BioAssay (NCI).
